Measured values drawn from the supplement of paper PMC6555819 for this set.

System: VDR:RXRa (NR concentration 270 nM, RXRa partner concentration 90 nM)
Assay: PBM binding z-score (relative to random genomic background probes); higher = stronger binding; sequences stand for … in GC…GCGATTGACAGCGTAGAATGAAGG
property.label: PBM binding z-score

What value of measured PBM binding z-score is listed for ATCGAAAGGTCGGGAGGTGAGTATACAGAAAGGC ?
2.24

And then CAAACTAGGTCAAGAAAGGTCAAAGTCGAATGAC , what is it?
6.44

And then CGAATGAGGGCATGAGTTGATAGCAAATGCCGAT , what is it?
1.48

And then CCTGGTAGGTCAATGGTCAGCTAAAGCAGCTCGC , what is it?
1.33

And then GCTAGCAGGCCATTTGGTTCACTCAATGACGGGC , what is it?
1.28

And then CCTACTGGTCCAAAGGTCATTGATTCCAATGCTC , what is it?
4.83

And then ATCTCTAGGTAATAGTTCAGTGAATCCCGAGGAT , what is it?
0.188

And then CAAACTAGGTCAAGGACAAAGTCGGTTTGTGCCA , what is it?
1.79

And then TTACCAAGGTGAAAGATCGTTGATGCACGCCTTG , what is it?
0.0935

And then TAGCCTAGGTCATTGGGCCAGTATTGTACGCATC , what is it?
2.26

And then ACTAGCATGCCAAGTTTGGGTCACTCAAACAAAG , what is it?
0.531

And then TAACCTAGGTCATGCGGGCCAGTATAGTGTCGGC , what is it?
3.55

And then GTACCAAGGTGAATAGGTCCTTGATGAGTAGGCG , what is it?
0.968

And then ACTAGCAGGCCAAGGGTCTCTCAAGATTAGTCCG , what is it?
-0.657

And then CGTCCAAGGTCATAGGAGGTCGGTGAAGACAGAT , what is it?
5.71

And then CCTTCCGGGTCACTGACAGGTTATAGCATTTGGA , what is it?
3.83

And then TAGCCTAGGTCATTCAGGGGCCAATATAGAAAGC , what is it?
3.77

And then AGAATGAGGTTATACGTAGTTCAGGGAAGAAAGT , what is it?
3.09

And then ATCGAAAGGCCGTGAGGTGAGTATACAGAAAGGC , what is it?
-0.0584

And then GGAAGGAGGGCAAAGTTGATAGCATCTGTCGACG , what is it?
0.964

And then AGAATGAGGCTATTAAGATCAGGGAATTGCGGTC , what is it?
-0.0838

And then TCTATTAGTTGATTAGGGGAACCGAAACAGCGGA , what is it?
0.739

And then TCGAGTAGGTTAGTGGCATTCAGAATGGCGTCGA , what is it?
-0.261

And then AATACAGGGTCATCGTAGGCCAGAGTCCGCACAG , what is it?
5.19

And then CCAACTAGGTCAAGGACAGTGAATCTCCGCACGC , what is it?
1.16

And then CCTCGGAGGACAACAGCAGGTCAGAGCTGCCAGA , what is it?
0.333
